Where do these numbers come from? They come from BindingDB's records for patent US20240150287.

Biological target: Mucosal addressin cell adhesion molecule 1/Integrin alpha-4/beta-7 (Homo sapiens, UniProt P13612+P26010+Q13477)
Sequence (P13612 whole entry): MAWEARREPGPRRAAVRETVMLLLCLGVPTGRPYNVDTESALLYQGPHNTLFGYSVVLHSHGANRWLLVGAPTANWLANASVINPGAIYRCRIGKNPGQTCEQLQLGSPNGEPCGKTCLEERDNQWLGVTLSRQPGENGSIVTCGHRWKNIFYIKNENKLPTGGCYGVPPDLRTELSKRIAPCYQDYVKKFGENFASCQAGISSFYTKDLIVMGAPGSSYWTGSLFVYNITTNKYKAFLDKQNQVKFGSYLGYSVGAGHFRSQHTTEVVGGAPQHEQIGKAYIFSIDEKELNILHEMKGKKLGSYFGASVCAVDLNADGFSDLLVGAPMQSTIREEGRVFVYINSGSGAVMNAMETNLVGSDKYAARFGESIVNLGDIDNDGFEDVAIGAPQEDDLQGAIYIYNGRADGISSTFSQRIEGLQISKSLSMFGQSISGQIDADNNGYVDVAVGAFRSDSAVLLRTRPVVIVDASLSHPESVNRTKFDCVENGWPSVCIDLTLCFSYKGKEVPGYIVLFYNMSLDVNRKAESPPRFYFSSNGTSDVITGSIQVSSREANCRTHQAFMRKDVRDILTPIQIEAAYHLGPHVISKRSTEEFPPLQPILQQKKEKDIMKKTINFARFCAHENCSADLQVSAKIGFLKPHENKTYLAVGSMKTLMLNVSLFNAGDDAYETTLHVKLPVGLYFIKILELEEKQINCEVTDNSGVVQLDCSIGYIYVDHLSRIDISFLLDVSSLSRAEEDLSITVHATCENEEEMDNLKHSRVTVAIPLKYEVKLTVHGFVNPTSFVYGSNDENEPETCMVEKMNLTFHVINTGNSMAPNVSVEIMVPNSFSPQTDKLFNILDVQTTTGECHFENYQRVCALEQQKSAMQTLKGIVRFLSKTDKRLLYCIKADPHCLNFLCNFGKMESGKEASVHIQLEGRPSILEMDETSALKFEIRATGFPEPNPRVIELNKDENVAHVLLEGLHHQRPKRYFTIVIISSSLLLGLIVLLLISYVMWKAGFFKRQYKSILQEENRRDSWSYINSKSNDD
Sequence (P26010 whole entry): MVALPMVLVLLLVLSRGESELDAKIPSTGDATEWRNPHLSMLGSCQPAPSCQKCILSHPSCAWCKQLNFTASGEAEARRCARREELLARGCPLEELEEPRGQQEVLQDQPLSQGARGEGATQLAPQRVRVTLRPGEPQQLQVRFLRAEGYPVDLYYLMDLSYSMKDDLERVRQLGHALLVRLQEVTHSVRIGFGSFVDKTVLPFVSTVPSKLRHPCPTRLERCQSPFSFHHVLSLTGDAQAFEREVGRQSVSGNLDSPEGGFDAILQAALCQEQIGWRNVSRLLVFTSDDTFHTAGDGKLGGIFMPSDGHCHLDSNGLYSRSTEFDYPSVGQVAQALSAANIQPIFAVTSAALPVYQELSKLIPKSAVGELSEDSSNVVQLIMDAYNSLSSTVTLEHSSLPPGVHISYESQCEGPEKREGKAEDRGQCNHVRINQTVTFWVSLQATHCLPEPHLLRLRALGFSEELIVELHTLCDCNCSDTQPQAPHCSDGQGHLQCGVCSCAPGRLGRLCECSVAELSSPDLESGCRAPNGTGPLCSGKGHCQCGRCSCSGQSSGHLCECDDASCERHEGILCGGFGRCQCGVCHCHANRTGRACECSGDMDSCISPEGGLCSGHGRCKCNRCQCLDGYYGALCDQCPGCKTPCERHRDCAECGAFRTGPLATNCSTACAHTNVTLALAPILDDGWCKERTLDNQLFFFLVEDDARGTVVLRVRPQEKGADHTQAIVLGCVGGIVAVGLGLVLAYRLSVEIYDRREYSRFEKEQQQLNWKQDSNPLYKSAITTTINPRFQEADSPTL
Sequence (Q13477 whole entry): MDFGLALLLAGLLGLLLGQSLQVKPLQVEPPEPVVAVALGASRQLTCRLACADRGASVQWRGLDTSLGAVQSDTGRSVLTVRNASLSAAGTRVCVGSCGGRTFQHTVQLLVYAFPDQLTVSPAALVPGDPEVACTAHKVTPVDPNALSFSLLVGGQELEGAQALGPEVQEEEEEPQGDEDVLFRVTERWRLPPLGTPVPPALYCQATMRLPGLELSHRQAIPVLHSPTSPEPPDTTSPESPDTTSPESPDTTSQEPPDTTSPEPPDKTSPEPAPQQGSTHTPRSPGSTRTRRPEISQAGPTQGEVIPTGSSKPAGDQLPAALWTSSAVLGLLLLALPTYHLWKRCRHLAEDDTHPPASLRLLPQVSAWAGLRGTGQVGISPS
Experiment: BINDING INHIBITION ACTIVITY EVALUATION TEST
Catalogue of compounds with associated pIC50
Reminder that pIC50 is minus the log10 of a molar concentration.

- MOLECULAR_STRING: "COC(=O)[C@H](Cc1ccc(-n2c(=O)n(C3CC3)c3cccc(F)c32)cc1)NC(c1ccccc1)(c1ccccc1)c1ccccc1"
  pIC50: 8.06
- MOLECULAR_STRING: "COC(=O)[C@H](Cc1ccc(N2C(=O)C3(CC3)c3cc(F)ccc32)cc1)NC(c1ccccc1)(c1ccccc1)c1ccccc1"
  pIC50: 7.02

Could you now look at the following compound, please?
[in] I am curious: what pIC50 value has been reported for "COC(=O)[C@H](Cc1ccc(-n2c(=O)n(C3CC3)c3cccc(Cl)c32)cc1)NC(c1ccccc1)(c1ccccc1)c1ccccc1" ?
[out] 8.12
